Every entry's value here was drawn from BindingDB's records for patent US20240246981.

I'd be grateful if you could share measured IC50 for these entries.

Ask: Provide the documented IC50 with Glutaminyl-peptide cyclotransferase (Homo sapiens) as the system for Cn1cnnc1C1CCN(c2c(C#N)cccc2-c2cncc(OC(F)F)c2)CC1 [US20240246981, Example 23]
Sequence (Q16769 whole entry): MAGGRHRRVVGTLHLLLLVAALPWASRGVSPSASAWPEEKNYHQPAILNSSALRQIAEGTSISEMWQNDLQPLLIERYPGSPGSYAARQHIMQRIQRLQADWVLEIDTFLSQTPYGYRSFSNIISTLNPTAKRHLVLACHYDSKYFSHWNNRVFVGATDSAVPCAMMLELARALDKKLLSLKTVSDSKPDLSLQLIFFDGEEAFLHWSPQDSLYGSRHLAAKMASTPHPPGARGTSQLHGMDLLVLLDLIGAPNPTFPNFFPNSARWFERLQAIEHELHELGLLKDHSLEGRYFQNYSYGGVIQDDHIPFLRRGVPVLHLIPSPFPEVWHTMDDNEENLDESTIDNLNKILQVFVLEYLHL
Result: 162 nM

Ask: Provide the documented IC50 with Glutaminyl-peptide cyclotransferase (Homo sapiens) as the system for Cn1cnnc1C1CCN(c2c(C#N)cccc2-c2cnc(F)c(OC(F)F)c2)CC1 [US20240246981, Example 37]
Result: 28 nM

Ask: Provide the documented IC50 with Glutaminyl-peptide cyclotransferase (Homo sapiens) as the system for Cn1cnnc1C1(C)CCN(c2c(C#N)cccc2-c2cccnc2)CC1 [US20240246981, Example 65]
Result: 9 nM

Ask: Provide the documented IC50 with Glutaminyl-peptide cyclotransferase (Homo sapiens) as the system for Cn1cnnc1C1CCN(c2c(C#N)cccc2-c2cncc(-c3ccccc3)c2)CC1 [US20240246981, Example 21]
Result: 195 nM

Ask: Provide the documented IC50 with Glutaminyl-peptide cyclotransferase (Homo sapiens) as the system for Cn1cnnc1C1CCN(c2c(C#N)cccc2-c2cnc3nn(C)c(C(F)(F)F)c3c2)CC1 [US20240246981, Example 41]
Result: 9 nM

Ask: Provide the documented IC50 with Glutaminyl-peptide cyclotransferase (Homo sapiens) as the system for Cn1cnnc1C1CCN(c2c(C#N)cccc2-c2cnc(F)c(OC3CCC3)c2)CC1 [US20240246981, Example 34]
Result: 6 nM

###

Biological target: Glutaminyl-peptide cyclotransferase-like protein (Homo sapiens, UniProt Q9NXS2)
Sequence (Q9NXS2 whole entry): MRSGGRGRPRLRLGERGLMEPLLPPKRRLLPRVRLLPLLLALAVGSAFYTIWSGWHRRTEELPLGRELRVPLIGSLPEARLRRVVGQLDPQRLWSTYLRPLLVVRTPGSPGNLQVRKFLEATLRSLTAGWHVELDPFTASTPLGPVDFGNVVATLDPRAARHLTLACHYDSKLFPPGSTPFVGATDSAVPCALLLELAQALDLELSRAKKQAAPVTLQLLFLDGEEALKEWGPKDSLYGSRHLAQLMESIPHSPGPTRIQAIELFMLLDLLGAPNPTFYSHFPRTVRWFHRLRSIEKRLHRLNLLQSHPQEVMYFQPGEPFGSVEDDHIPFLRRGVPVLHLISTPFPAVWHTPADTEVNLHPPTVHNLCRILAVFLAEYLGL
pIC50: −log10 of the molar value.
Give rule met when the value for pIC50 is at least 8. Give rule not met when it is less.

Ask: Hi team, for `Cn1cnnc1C1CCN(c2c(C#N)cccc2-c2cncc(-c3ccccc3)c2)CC1` , is the recorded pIC50 at or above 8?
Result: rule not met

Ask: Hi team, for `Cn1cnnc1C1CCN(c2c(C#N)cccc2-c2cnc(F)c(OC3CCC3)c2)CC1` , is the recorded pIC50 at or above 8?
Result: rule met

Ask: Hi team, for `Cn1cnnc1C1(C)CCN(c2c(C#N)cccc2-c2cccnc2)CC1` , is the recorded pIC50 at or above 8?
Result: rule not met
